Molecular target: GABA-A receptor; alpha-2/beta-3/gamma-2 (Homo sapiens, UniProt P18507+P28472+P47869)
Test: Inhibition of [3H]Ro-151788 binding to recombinant human gamma-aminobutyric acid A receptor alpha-2-beta-3-gamma-2 subtype expressed in L (tk-) cells
Entries annotated with measured Ki
Give the number; µM is assumed, so skip it.

These solved cases illustrate the format of a correct answer.
Cc1cnc(COc2nn3c(-c4ccccc4)nnc3c3c2C2CCC3CC2)c(C)c1	0.0034
c1ccc(-c2nnc3c4c(c(OCc5ncc[nH]5)nn23)C2CCC4CC2)cc1	0.018
c1ccc(-c2nnc3c4c(c(OCc5cccnn5)nn23)C2CCC4CC2)cc1	0.014
Cc1csc(-c2nnc3c4c(c(OCc5ccccn5)nn23)C2CCC4CC2)n1	0.14
c1ccc(-c2nnc3c4c(c(OCCc5ccccn5)nn23)C2CCC4CC2)cc1	0.27

Can you look up the measured Ki of c1ccc(COc2nn3c(-c4cccnc4)nnc3c3c2C2CCC3CC2)nc1 for me?
0.054

Can you look up the measured Ki of CCCn1ncnc1COc1nn2c(-c3ccccc3)nnc2c2c1C1CCC2CC1 for me?
0.0025

Can you look up the measured Ki of Cc1ccnc(COc2nn3c(-c4ccccc4)nnc3c3c2C2CCC3CC2)c1 for me?
0.019

Can you look up the measured Ki of N#Cc1cccnc1COc1nn2c(-c3ccccc3)nnc2c2c1C1CCC2CC1 for me?
0.0059

###

Target: GABA-A receptor; alpha-5/beta-3/gamma-2 (Homo sapiens, UniProt P18507+P28472+P31644)
Assay: Inhibition of [3H]Ro-151788 binding to recombinant human gamma-aminobutyric-acid A receptor alpha-5-beta-3-gamma-2 subtype expressed in L (tk-) cells
// returns No unless Ki is strictly below 1 nM, in which case Yes

Worked examples follow.
c1ccc(-c2nnc3c4c(c(OCCc5ccccn5)nn23)C2CCC4CC2)cc1	No
CSOc1ccc(COc2nn3c(-c4ccccc4)nnc3c3c2C2CCC3CC2)cc1	No
CCn1ccnc1COc1nn2c(-c3ccccc3)nnc2c2c1C1CCC2CC1	Yes
CCCc1cccnc1COc1nn2c(-c3ccccc3)nnc2c2c1C1CCC2CC1	No
Clc1ccc(COc2nn3c(-c4ccccc4)nnc3c3c2C2CCC3CC2)nn1	No
Cc1ccc(-c2nnc3c4c(c(OCc5ccccn5)nn23)C2CCC4CC2)cc1	No

Now look at this one.
Is Ki of c1ccc(-c2nnc3c4c(c(OCc5cscn5)nn23)C2CCC4CC2)cc1 strictly below 1 nM?
No

###

Entries annotated with measured pKi
Target: GABA-A receptor; alpha-3/beta-3/gamma-2 (Homo sapiens, UniProt P18507+P28472+P34903)
Assay: Inhibition of [3H]Ro-151788 binding to recombinant human gamma-aminobutyric-acid A receptor alpha-3-beta-3-gamma-2 subtype expressed in L (tk-) cells
Field pKi (float): negative decimal logarithm of the concentration in molar.

These solved cases illustrate the format of a correct answer.
Cc1nc(COc2nn3c(-c4ccccc4)nnc3c3c2C2CCC3CC2)no1	7.18
Cc1cc(COc2nn3c(-c4ccccc4)nnc3c3c2C2CCC3CC2)sn1	7.00
Cc1cccc(-c2nnc3c4c(c(OCc5ccccn5)nn23)C2CCC4CC2)c1	6.85
CN(C)C(=O)COc1nn2c(-c3ccccc3)nnc2c2c1C1CCC2CC1	7.05

Continue with the next compound.
Can you look up the measured pKi of c1ccc(COc2nn3c(-c4ccncc4)nnc3c3c2C2CCC3CC2)nc1 for me?
6.82

###

Entries annotated with measured Efficacy
Target: GABA-A receptor; alpha-5/beta-3/gamma-2 (Homo sapiens) (UniProt P18507+P28472+P31644)
Assay: Efficacy was measured as modulation of the current in response to GABA at hGABA alpha-5-beta-3-gamma-2 receptor expressed in Xenopus oocytes
Format: cell-based
Conditions: Oocyte

Cc1ccc(-c2nnc3c4c(c(OCc5ccccn5)nn23)C2CCC4CC2)cc1	6%
c1ccc(-c2nnc3c4c(c(OCc5ccccn5)nn23)C2CCC4CC2)cc1	18%
c1ccc(COc2nn3c(-c4cccnc4)nnc3c3c2C2CCC3CC2)nc1	31%

Can you look up the measured Efficacy of c1ccc(-c2nnc3c4c(c(OCc5ncccc5OCC5CC5)nn23)C2CCC4CC2)cc1 for me?
50%

###

Entries annotated with measured Ki
Molecular target: GABA-A receptor; alpha-2/beta-3/gamma-2 (Homo sapiens, UniProt P18507+P28472+P47869)
Test: Inhibition of [3H]Ro-151788 binding to recombinant human gamma-aminobutyric acid A receptor alpha-2-beta-3-gamma-2 subtype expressed in L (tk-) cells
Give the number; nM is assumed, so skip it.

These solved cases illustrate the format of a correct answer.
Cc1ccc(-c2nnc3c4c(c(OCc5ccccn5)nn23)C2CCC4CC2)cc1	120
c1ccc(-c2nnc3c4c(c(OCc5cccnc5)nn23)C2CCC4CC2)cc1	68
OCc1cccc(COc2nn3c(-c4ccccc4)nnc3c3c2C2CCC3CC2)c1	110
c1ccc(COc2cccnc2COc2nn3c(-c4ccccc4)nnc3c3c2C2CCC3CC2)cc1	100

Continue with the next compound.
Can you look up the measured Ki of N#Cc1ccccc1COc1nn2c(-c3ccccc3)nnc2c2c1C1CCC2CC1 for me?
83

###

Target: GABA-A receptor; alpha-1/beta-3/gamma-2 (Homo sapiens, UniProt P14867+P18507+P28472)
Experiment: Inhibition of [3H]Ro-151788 binding to recombinant human gamma-aminobutyric-acid A receptor alpha-1-beta-3-gamma-2 subtype expressed in L (tk-) cells
pKi: −log10 of the molar value.
EXPERIMENTAL_ENDPOINT: pKi

These solved cases illustrate the format of a correct answer.
c1ccc(-c2nnc3c4c(c(OCc5ccco5)nn23)C2CCC4CC2)cc1	< 6.30
COc1ccccc1-c1nnc2c3c(c(OCc4ccccn4)nn12)C1CCC3CC1	< 6.00
CCO[n+]1ccccc1Oc1nn2c(-c3ccccc3)nnc2c2c1C1CCC2CC1	< 6.00
c1ccc(-c2nnc3c4c(c(OCc5ccc6c(c5)OCO6)nn23)C2CCC4CC2)cc1	< 6.30
c1ccc(-c2nnc3c4c(c(OCc5cccs5)nn23)C2CCC4CC2)cc1	< 6.30

Give pKi (GABA-A receptor; alpha-1/beta-3/gamma-2 (Homo sapiens, UniProt P14867+P18507+P28472)) of the following compound: c1ccc(-c2nnc3c4c(c(Oc5cccnc5)nn23)C2CCC4CC2)cc1
< 6.30

###

Target: GABA-A receptor; alpha-5/beta-3/gamma-2 (Homo sapiens, UniProt P18507+P28472+P31644)
Experiment: Inhibition of [3H]Ro-151788 binding to recombinant human gamma-aminobutyric-acid A receptor alpha-5-beta-3-gamma-2 subtype expressed in L (tk-) cells
Entries annotated with measured pKi
Field pKi (float): negative decimal logarithm of the concentration in molar.

These solved cases illustrate the format of a correct answer.
O=C1CCC(COc2nn3c(-c4ccccc4)nnc3c3c2C2CCC3CC2)N1 (centres undefined)	7.23
c1ccc(COc2nn3c(C4CC4)nnc3c3c2C2CCC3CC2)nc1	8.74
Fc1ccc(-c2nnc3c4c(c(OCc5ccccn5)nn23)C2CCC4CC2)cc1	7.57
c1ccc(-c2nnc3c4c(c(OCc5ccncn5)nn23)C2CCC4CC2)cc1	9.26
c1ccc(-c2nnc3c4c(c(OCc5nc6ccccc6s5)nn23)C2CCC4CC2)cc1	7.64
N#Cc1ccccc1COc1nn2c(-c3ccccc3)nnc2c2c1C1CCC2CC1	8.59

Can you look up the measured pKi of c1ccc(-c2nnc3c4c(c(OCc5ccc6ccccc6n5)nn23)C2CCC4CC2)cc1 for me?
8.02

Can you look up the measured pKi of Cc1ccc(COc2nn3c(-c4ccccc4)nnc3c3c2C2CCC3CC2)nc1 for me?
8.92

###

Entries annotated with measured log10 Ki
Biological target: GABA-A receptor; alpha-1/beta-3/gamma-2 (Homo sapiens, UniProt P14867+P18507+P28472)
Sequence (P14867 whole entry): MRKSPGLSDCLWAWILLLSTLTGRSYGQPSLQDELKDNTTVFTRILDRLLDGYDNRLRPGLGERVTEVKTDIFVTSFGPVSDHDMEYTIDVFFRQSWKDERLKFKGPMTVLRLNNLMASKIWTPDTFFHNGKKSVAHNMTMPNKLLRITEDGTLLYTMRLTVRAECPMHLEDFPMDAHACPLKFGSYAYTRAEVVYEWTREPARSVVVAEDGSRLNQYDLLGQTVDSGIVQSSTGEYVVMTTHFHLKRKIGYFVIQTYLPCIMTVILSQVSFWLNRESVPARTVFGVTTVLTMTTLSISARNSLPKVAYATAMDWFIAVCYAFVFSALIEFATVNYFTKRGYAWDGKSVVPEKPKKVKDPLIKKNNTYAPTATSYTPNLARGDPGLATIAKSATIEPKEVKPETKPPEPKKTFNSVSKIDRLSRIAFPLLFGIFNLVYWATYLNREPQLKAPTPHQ
Sequence (P18507 whole entry): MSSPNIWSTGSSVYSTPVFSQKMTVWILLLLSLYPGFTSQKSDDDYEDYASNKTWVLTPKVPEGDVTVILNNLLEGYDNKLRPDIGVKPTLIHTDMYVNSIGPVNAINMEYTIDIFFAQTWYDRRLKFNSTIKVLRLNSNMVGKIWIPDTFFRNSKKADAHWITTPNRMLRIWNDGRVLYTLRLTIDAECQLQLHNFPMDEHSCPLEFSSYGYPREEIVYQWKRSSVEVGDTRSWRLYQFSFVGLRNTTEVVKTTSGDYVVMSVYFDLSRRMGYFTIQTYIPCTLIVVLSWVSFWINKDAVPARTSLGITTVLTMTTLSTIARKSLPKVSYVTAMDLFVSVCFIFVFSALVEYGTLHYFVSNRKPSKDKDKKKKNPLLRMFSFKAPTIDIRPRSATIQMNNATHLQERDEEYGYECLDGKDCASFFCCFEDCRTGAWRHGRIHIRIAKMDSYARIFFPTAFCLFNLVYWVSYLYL
Sequence (P28472 whole entry): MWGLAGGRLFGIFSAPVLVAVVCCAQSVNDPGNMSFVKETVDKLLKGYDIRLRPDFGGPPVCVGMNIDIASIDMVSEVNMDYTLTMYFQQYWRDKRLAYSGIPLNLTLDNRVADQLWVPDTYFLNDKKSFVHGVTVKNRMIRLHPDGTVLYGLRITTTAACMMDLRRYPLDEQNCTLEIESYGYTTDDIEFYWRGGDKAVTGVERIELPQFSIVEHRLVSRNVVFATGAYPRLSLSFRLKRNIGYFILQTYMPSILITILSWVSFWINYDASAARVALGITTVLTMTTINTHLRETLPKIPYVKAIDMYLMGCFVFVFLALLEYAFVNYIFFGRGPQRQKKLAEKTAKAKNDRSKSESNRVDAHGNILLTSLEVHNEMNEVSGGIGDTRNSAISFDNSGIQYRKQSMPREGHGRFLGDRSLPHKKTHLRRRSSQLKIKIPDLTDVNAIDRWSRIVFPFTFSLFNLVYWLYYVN
Experiment: Inhibition of [3H]Ro-151788 binding to recombinant human gamma-aminobutyric-acid A receptor alpha-1-beta-3-gamma-2 subtype expressed in L (tk-) cells
Scale: log10; quantity: Ki; unit before log: nM

c1ccc(-c2nnc3c4c(c(OCc5cccnn5)nn23)C2CCC4CC2)cc1	1.52
OCc1cccc(COc2nn3c(-c4ccccc4)nnc3c3c2C2CCC3CC2)c1	2.69
Cc1ccnc(COc2nn3c(-c4ccccc4)nnc3c3c2C2CCC3CC2)c1C	1.04
c1ccc(COc2nn3c(-c4cccnc4)nnc3c3c2C2CCC3CC2)nc1	2.41
c1ccc(COc2cccnc2COc2nn3c(-c4ccccc4)nnc3c3c2C2CCC3CC2)cc1	2.20

Give log10 Ki (GABA-A receptor; alpha-1/beta-3/gamma-2 (Homo sapiens, UniProt P14867+P18507+P28472)) of the following compound: c1ccc(-c2nnc3c4c(c(OCc5ncccn5)nn23)C2CCC4CC2)cc1
1.94

Give log10 Ki (GABA-A receptor; alpha-1/beta-3/gamma-2 (Homo sapiens, UniProt P14867+P18507+P28472)) of the following compound: c1ccc(Cn2ccnc2COc2nn3c(-c4ccccc4)nnc3c3c2C2CCC3CC2)cc1
-0.09

Give log10 Ki (GABA-A receptor; alpha-1/beta-3/gamma-2 (Homo sapiens, UniProt P14867+P18507+P28472)) of the following compound: c1ccc(COc2nn3c(-c4ccsc4)nnc3c3c2C2CCC3CC2)nc1
2.11

Give log10 Ki (GABA-A receptor; alpha-1/beta-3/gamma-2 (Homo sapiens, UniProt P14867+P18507+P28472)) of the following compound: CCCc1cccnc1COc1nn2c(-c3ccccc3)nnc2c2c1C1CCC2CC1
0.54

Give log10 Ki (GABA-A receptor; alpha-1/beta-3/gamma-2 (Homo sapiens, UniProt P14867+P18507+P28472)) of the following compound: Cn1cnc(COc2nn3c(-c4ccccc4)nnc3c3c2C2CCC3CC2)n1
1.49

Give log10 Ki (GABA-A receptor; alpha-1/beta-3/gamma-2 (Homo sapiens, UniProt P14867+P18507+P28472)) of the following compound: Cc1cccc(COc2nn3c(-c4ccccc4)nnc3c3c2C2CCC3CC2)n1
2.20

Give log10 Ki (GABA-A receptor; alpha-1/beta-3/gamma-2 (Homo sapiens, UniProt P14867+P18507+P28472)) of the following compound: OCc1ccc(COc2nn3c(-c4ccccc4)nnc3c3c2C2CCC3CC2)cc1
2.72

Give log10 Ki (GABA-A receptor; alpha-1/beta-3/gamma-2 (Homo sapiens, UniProt P14867+P18507+P28472)) of the following compound: Cc1ccnc(COc2nn3c(-c4ccccc4)nnc3c3c2C2CCC3CC2)c1
1.97

Give log10 Ki (GABA-A receptor; alpha-1/beta-3/gamma-2 (Homo sapiens, UniProt P14867+P18507+P28472)) of the following compound: Cc1ccc(COc2nn3c(-c4ccccc4)nnc3c3c2C2CCC3CC2)nc1
1.75
